Biological target: Gag-Pol polyprotein (Human immunodeficiency virus type 1 group M subtype B (isolate HXB2))
Experiment: HIV-1 RT RNase H inhibitor potency, dose response, biochemical, probe assessment (AID 652)
Details: pH 8; 23 °C
Mark T for IC50 under 3000 nM, F if at or over.

Cc1nc(-c2cccc(S(=O)(=O)N3CCOCC3)c2)cs1
F
COc1ccc(N2CSC3=C(C#N)C(c4cc(OC)c(OC)cc4OC)CC(=O)N3C2)c(OC)c1 (stereo not given) [MLS000117261]
F
c1ccc(Cc2nnc3sc(-c4ccncc4)nn23)cc1
T

Query: Please determine if `Clc1ccccc1-c1nn2c(-c3ccncc3)nnc2s1` is below 3000 nM in terms of IC50.
Response: T

====

Target: Gag-Pol polyprotein (Human immunodeficiency virus type 1 group M subtype B (isolate HXB2), UniProt P04585)
Assay: HIV-1 RT RNase H inhibitor potency, dose response, biochemical, probe assessment (AID 652)
Details: pH 8; 23 °C
pIC50: −log10 of the molar value.
Give met when the value for pIC50 is at least 5. Give not met when it is less.

Past entries and their recorded results:
CCOC(=O)N1CCC2=C(C#N)C(=N)C(C#N)(C#N)[C@H](c3ccc(OC(C)C)c(OCC)c3)[C@H]2C1
not met
O=C(NCc1ccco1)c1cccnc1-c1nc2ccccc2s1
met
COc1ccc(Cn2nnnc2C(c2cccnc2)N2CCN(c3ccc(O)cc3)CC2)cc1 (configuration not stated)
not met
COc1cc(-c2nn3c(Cc4ccccc4)nnc3s2)cc(OC)c1OC
met
CC1CCc2c(sc(NC(=O)c3ccc(Cn4cc(Br)cn4)o3)c2C(N)=O)C1 (configuration not stated)
met
Nc1c(S(=O)(=O)c2cccc(Cl)c2)c2c(n1N=CC1=CC(=O)C(=O)C=C1)Nc1ccccc1N2
met
COC(=O)N(c1ccccc1)P1(=S)OCCO1
met
Cc1ccccc1NC(=O)c1c(O)n2c3c(cccc3c1=O)CC2
not met
CC(C)c1nc2sc3c(SCC(=O)NCc4ccco4)ncnc3c2c2c1CCC2
met

With those in mind, consider the next compound.
Query: In plain terms: is recorded pIC50 at least 5 for `COC(=O)c1oc2ccc(Br)cc2c1NC(=O)c1ccccc1` ?
Response: met

====

Molecular target: Gag-Pol polyprotein (Human immunodeficiency virus type 1 group M subtype B (isolate HXB2), UniProt P04585)
Test: HIV-1 RT RNase H inhibitor potency, dose response, biochemical, probe assessment (AID 652)
Conditions: pH 8; 23 °C
pIC50 listing for selected compounds.
In plain terms, pIC50 is the concentration in mol/L turned into minus its base-10 logarithm.

Here's what some known entries look like.
CCN(Cc1ccccc1)S(=O)(=O)c1ccc(C(=O)Nc2nnc(-c3ccccc3OC)o2)cc1
5.05
C=CCn1c(SCC(=O)c2ccc(O)c(O)c2)nnc1-c1ccccc1OC
5.59
COc1ccc(OC)c(S(=O)(=O)Nc2ccc(O)c(Sc3nc[nH]n3)c2)c1
5.61
CCCCCCNC(=O)c1c(N)n(N=Cc2ccco2)c2nc3ccccc3nc12
5.56
CCOC(=O)N1CCc2c(sc3c2C(=O)NC(c2ccc(-c4ccc(Cl)cc4)o2)N3)C1 (stereo unspecified)
5.28

Query: Field request: pIC50 | item: O=C(CCCn1c(SCC(=O)c2ccc(O)c(O)c2)nc2ccccc2c1=O)NCC1CCCO1 (stereo unspecified)
Response: 6.06

Query: Same question for COC(=O)c1ccc2c(=O)[nH]c(CN3c4ccccc4CC3C)nc2c1 (stereo unspecified) please.
Response: 4.88

Query: Same question for `CCCc1cc(C(=O)Nc2sc(C)c(C)c2C(=O)OCC)no1` please.
Response: 5.60

Query: Same question for COC(=O)c1sc(N2C(=O)c3oc4ccccc4c(=O)c3C2c2cccs2)nc1C (stereo unspecified) please.
Response: 5.28

Query: Same question for CCOC(=O)C1CCCN(C(=O)Cn2sc3nc(C)cc(C)c3c2=O)C1 (stereo unspecified) please.
Response: 5.04

Query: Same question for `S=c1[nH]c(C2CC2)nc2ccccc12` please.
Response: 5.69
